Data origin: patent US5686486A

Molecular target: HIV-1 protease (Human immunodeficiency virus type 1 group M subtype B, UniProt P04585)
Experiment: biochemical
Conditions: dose 100.000 uM; read-out: HIV-1 Protease % Inhib
Quantity measured: inhibition at 100 µM (%)
# value in %; strip the unit string

# annotated cases, reported inhibition at 100 µM shown
- Compound: "O=c1oc2c(c(O)c1C(c1ccccc1)C1CC1)CCC2 (stereo not shown)"
  inhibition at 100 µM, %: 109
- Compound: "O=c1oc2c(c(O)c1C(c1ccccc1)C1CC1)CCCCCCCCCC2 (stereo not shown)"
  inhibition at 100 µM, %: 14.1
- Compound: "O=c1oc2ccccc2c(O)c1C(=Cc1ccccc1)c1ccccc1 [Example 21, 3-(1,2-Diphenylethenyl)4-hydroxycoumarin]"
  inhibition at 100 µM, %: 74.3

Proceed to the following item.
Supply recorded inhibition at 100 µM for O=c1oc2ccccc2c(O)c1Cc1ccc2ccccc2c1 [Example 3, 4-Hydroxy-3-(2-naphthylmethyl)coumarin] here.
48.8

----------
Target: HIV-1 protease (Human immunodeficiency virus type 1 group M subtype B)
Assay: biochemical
Conditions: read-out: HIV-1 FITC KI
Quantity measured: pKi
// scale note: pKi = -log10(conc_M); give the bare number

- Molecule: "O=c1oc2c(c(O)c1C(c1cccc(NS(=O)(=O)CCCCl)c1)C1CC1)CCCCCC2 (stereo not shown)"
  pKi: 8.32
- Molecule: "O=C(CCN1CCCCC1)Nc1cccc(C(c2c(O)c3c(oc2=O)CCCCCC3)C2CC2)c1 (stereo not shown)"
  pKi: 7.58
- Molecule: "CN1CCN(S(=O)(=O)Nc2cccc(C(c3c(O)c4c(oc3=O)CCCCCC4)C3CC3)c2)CC1 (stereo not shown)"
  pKi: 6.73
- Molecule: "O=C(Nc1cccc(C(c2c(O)c3c(oc2=O)CCCCCC3)C2CC2)c1)c1ccccc1 (stereo not shown)"
  pKi: 7.38

Supply recorded pKi for CCC(c1ccccc1)c1c(O)c2c(oc1=O)CCCC2 (stereo not shown) here.
5.96

Supply recorded pKi for CCOC(=O)Nc1cccc(C(c2c(O)c3c(oc2=O)CCCCCC3)C2CC2)c1 (stereo not shown) here.
7.72

----------
Target: HIV-1 protease (Human immunodeficiency virus type 1 group M subtype B, UniProt P04585)
Experiment: biochemical
Settings: read-out: HIV-1 FITC KI
Recorded log10 Ki, one value per entry.
Please interpret these as log10 of Ki where Ki is in nM.

# annotated cases, reported log10 Ki shown
- Molecule: "O=c1oc2c(c(O)c1[C@H](c1cccc(NS(=O)(=O)c3ccc(S(=O)(=O)c4ccccc4)s3)c1)C1CC1)CCCCCC2 [Example 404]"
  Quantity measured: "log10 Ki"
  Observed result: 0.46
- Molecule: "O=c1oc2c(c(O)c1C(Cc1ccccc1)Cc1ccccc1)CCCCCC2 [Example 136]"
  Quantity measured: "log10 Ki"
  Observed result: 2.03
- Molecule: "O=c1oc2c(c(O)c1[C@@H](c1ccccc1)C1CC1)CCCCCC2 [Example 228]"
  Quantity measured: "log10 Ki"
  Observed result: 1.54
- Molecule: "CCCC(c1cccc(NS(=O)(=O)c2ccc(C#N)cc2)c1)c1c(O)c2c(oc1=O)CCCCCC2 (single isomer, unassigned) [Example 437]"
  Quantity measured: "log10 Ki"
  Observed result: 0.36
- Molecule: "CCCC(c1cccc(NS(=O)(=O)c2ccc(C#N)cc2)c1)c1c(O)c2c(oc1=O)CCCCCC2 (single isomer, unassigned) [Example 439]"
  Quantity measured: "log10 Ki"
  Observed result: 0.48
- Molecule: "O=c1oc2c(c(O)c1[C@H](c1cccc(NS(=O)(=O)c3ccc(Cl)cc3)c1)C1CC1)CCCCCC2 [Example 250]"
  Quantity measured: "log10 Ki"
  Observed result: 0.09

Proceed to the following item.
Supply recorded log10 Ki for CC(C)(C)OC(=O)NCCC(=O)Nc1cccc(C(c2c(O)c3c(oc2=O)CCCCC3)C2CC2)c1 (stereo not shown) [Example 214] here.
1.29
